- ASSAY OVERVIEW: Cytotoxicity against African green monkey Vero cells after 72 hrs by MTT assay
- Assay type: cell-based
- TEST SETTINGS: chlorocebus sabaeus
Define the label as TRUE when CC50 at 72 h is strictly less than 50 µM and as FALSE in all remaining cases.

Is CC50 at 72 h of "COc1ccc(-c2cc(/C=C/CO)nc3ccc(Cl)cc23)cc1" strictly below 50 µM?
TRUE

Is CC50 at 72 h of "COc1ccc(-c2cc(/C=C/CO)nc3cc(F)c(Cl)cc23)cc1" strictly below 50 µM?
TRUE

Is CC50 at 72 h of CC1CN(c2cc(/C=C/CO)nc3cc(F)c(Cl)cc23)CC(C)O1 (stereo not drawn) strictly below 50 µM?
TRUE

More entries:
Is CC50 at 72 h of "OC/C=C/c1ccc2cc(Cl)c(F)cc2n1" strictly below 50 µM?
FALSE

Is CC50 at 72 h of "OC/C=C/c1cc(N2CCCCC2)c2cc(Cl)c(F)cc2n1" strictly below 50 µM?
TRUE

Is CC50 at 72 h of "COc1cc2nc(/C=C/CO)cc(N3CCOCC3)c2cc1Cl" strictly below 50 µM?
FALSE

Is CC50 at 72 h of "O=C(O)/C=C/c1ccc2ccccc2n1" strictly below 50 µM?
FALSE

Is CC50 at 72 h of "OC/C=C/c1cc(-c2cccc(F)c2)c2cc(Cl)c(F)cc2n1" strictly below 50 µM?
TRUE
